B1: Ankyrin repeat and SAM domain-containing protein 6, residues 774 to 836; numbered along this chain, Q68DC2 (parent)
chain: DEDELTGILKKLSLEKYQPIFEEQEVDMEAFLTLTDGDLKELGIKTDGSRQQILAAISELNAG

variants of: B1; assay: abundance fitness (aPCA) (normalised: wild type 0, dead -1); higher = more abundant; growth selection in yeast, the domain comes from the species named; conditions: Homo sapiens
Label T when abundance fitness >= -0.3; otherwise F.

>>> print(df.to_string())
    variant_identifier  assigned_category
 0                P19K                  F
 1                R50E                  F
 2                Q52G                  T
 3                L32T                  T
 4                G43Y                  F
 5                E25Y                  T
 6                E29V                  F
 7                K11P                  F
 8                Y17T                  F
 9                A55M                  T
10                A56Y                  T
11                 L9R                  F
12                Q24A                  T
13                E41P                  F
14                Q24F                  T
15                Q51A                  T
16                L32W                  F
17                I57Y                  F
18                A62K                  T
19                T33V                  T
20                 D1M                  T
21                I44R                  F
22                 D3I                  T
23                D47Q                  T
24                 G7K                  T
25                E41V                  T
26                L34Y                  T
27                D38P                  F
28                S58A                  T
29                Q24V                  F
30                A55W                  F
31                S49F                  T
32                G43Q                  F
33                D38A                  F
34                A30M                  T
35                K45R                  T
36                E41S                  T
37                Y17V                  F
38                L54V                  T
39                E59H                  T
40                D38G                  T
41                E22Y                  T
42                A55Y                  T
43                G63H                  T
44                T35R                  T
45                 E4R                  F
46                 G7H                  T
47                 L9K                  F
48                L60K                  F
49                L60F                  T
50                S58Q                  T
51                A30Y                  T
52                S13L                  F
53                F21M                  F
54                E25T                  F
55                Q52T                  T
56                K40P                  F
57                G43R                  F
58                K16M                  T
59                S58I                  F
60                L60D                  F
61                 G7Q                  T
62                P19N                  T
63                T46N                  T
64                I20L                  T
65                K40N                  T
66                I44Q                  F
67                S49G                  T
68                 D3S                  T
69                T46L                  T
70                E41K                  T
71                L54S                  T
72                S49Y                  T
73                A62D                  T
74                Q18H                  T
75                 I8F                  T
76                 D1W                  F
77                I44Y                  F
78                E59N                  T
79                 I8H                  T
80                L32E                  T
81                G48F                  F
82                E25G                  T
83                 L9S                  F
84                M28N                  F
85                A56W                  F
86                V26I                  T
87                L60C                  T
88                E59P                  F
89                E41H                  T
